assay: Toxicity against human HepG2 cells; assay type: cell-based
pIC50: −log10 of the molar value.
Value Type: pIC50

The recorded pIC50 for CCn1c(C(=O)N(C2CC2)C2CC2)cc2c3c(ncn3C)c(Nc3cc(C)n(C)n3)nc21 is < 4.30

---

assay: Volume of distribution at steady state in dog at 0.2 mg/kg, iv and 0.2 mg/kg, po; format: ADME, organism-based, Canis lupus familiaris; settings: in vivo, read-out: Vdss
Value Type: Vd (L/kg)
Just the number in L/kg, nothing appended.

Briefly, Vd measured for CCn1c(C(=O)N(C2CC2)C2CC2)cc2c3c(ncn3C)c(Nc3cc(C)n(C)n3)nc21 [BMS-911543] : 1.6

---

assay: Oral bioavailability in cynomolgus monkey at 1 mg/kg; format: ADME, organism-based, Macaca fascicularis; conditions: in vivo
Value Type: bioavailability (%)
State the answer as a number, implicitly in %.

The recorded bioavailability for CCn1c(C(=O)N(C2CC2)C2CC2)cc2c3c(ncn3C)c(Nc3cc(C)n(C)n3)nc21 [BMS-911543] is 53

---

assay: Half life in cynomolgus monkey at 1 mg/kg, iv and 1 mg/kg, po; type: ADME, organism-based, Macaca fascicularis; conditions: in vivo
Value Type: half-life (h)
API: value field is a number in h; no unit string.

compound CCn1c(C(=O)N(C2CC2)C2CC2)cc2c3c(ncn3C)c(Nc3cc(C)n(C)n3)nc21 [BMS-911543] , half-life observed: 2.4

---

biological target: Non-receptor tyrosine-protein kinase TYK2 (Homo sapiens, UniProt P29597); assay: Inhibition of recombinant TYK2 (unknown origin) by scintillation counting method
Sequence (P29597 whole entry): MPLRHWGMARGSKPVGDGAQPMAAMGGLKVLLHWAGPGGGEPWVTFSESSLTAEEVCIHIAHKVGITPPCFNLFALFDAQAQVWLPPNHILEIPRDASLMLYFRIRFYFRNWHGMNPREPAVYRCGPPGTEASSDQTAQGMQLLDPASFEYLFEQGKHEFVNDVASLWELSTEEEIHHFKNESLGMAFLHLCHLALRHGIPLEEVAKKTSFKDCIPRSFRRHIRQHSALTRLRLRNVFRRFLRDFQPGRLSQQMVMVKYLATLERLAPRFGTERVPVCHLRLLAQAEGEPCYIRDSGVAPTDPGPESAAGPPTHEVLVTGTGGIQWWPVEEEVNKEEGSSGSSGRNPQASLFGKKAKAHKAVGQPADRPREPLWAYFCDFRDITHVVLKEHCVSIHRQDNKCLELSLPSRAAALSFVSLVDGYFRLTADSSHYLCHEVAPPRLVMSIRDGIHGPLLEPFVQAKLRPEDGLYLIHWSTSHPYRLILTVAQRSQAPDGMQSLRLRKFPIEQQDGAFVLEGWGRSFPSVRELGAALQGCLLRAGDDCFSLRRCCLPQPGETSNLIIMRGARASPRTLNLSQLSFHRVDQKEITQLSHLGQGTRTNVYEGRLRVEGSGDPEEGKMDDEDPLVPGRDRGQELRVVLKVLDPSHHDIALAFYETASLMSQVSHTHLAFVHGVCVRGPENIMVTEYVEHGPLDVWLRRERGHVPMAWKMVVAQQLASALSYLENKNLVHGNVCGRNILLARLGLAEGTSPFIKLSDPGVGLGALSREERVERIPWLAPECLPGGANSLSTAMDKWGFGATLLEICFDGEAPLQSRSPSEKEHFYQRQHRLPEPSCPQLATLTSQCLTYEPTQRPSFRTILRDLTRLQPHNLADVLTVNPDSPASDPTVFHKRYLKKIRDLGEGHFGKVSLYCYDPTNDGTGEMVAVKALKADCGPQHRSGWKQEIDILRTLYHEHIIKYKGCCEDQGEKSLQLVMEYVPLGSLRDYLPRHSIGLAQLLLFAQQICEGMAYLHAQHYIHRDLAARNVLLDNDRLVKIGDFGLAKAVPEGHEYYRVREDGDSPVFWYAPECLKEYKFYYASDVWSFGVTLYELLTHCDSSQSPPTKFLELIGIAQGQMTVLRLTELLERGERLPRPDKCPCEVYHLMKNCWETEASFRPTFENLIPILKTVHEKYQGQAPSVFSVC
Listed molecules paired with reported IC50
The answer is to be given in nM; state only the numeric part.

# Test Smiles, Tgt, Reported Value
rows = [
    ("CCn1c(C(=O)N(C2CC2)C2CC2)cc2c3c(ncn3C)c(Nc3cc(C)n(C)n3)nc21", "Non-receptor tyrosine-protein kinase TYK2 (Homo sapiens, UniProt P29597)", 66),
]

// IC50 (Non-receptor tyrosine-protein kinase TYK2 (Homo sapiens, UniProt P29597)) for CCn1c(C(=O)N(C2CC2)C2CC2)cc2c3c(ncn3C)c(Nc3cc(C)[nH]n3)nc21 = 1.9

Non-receptor tyrosine-protein kinase TYK2 (Homo sapiens, UniProt P29597) IC50 of CCn1nc(Nc2nc3c(cc(C(=O)N(C4CC4)C4CC4)n3CC)c3c2ncn3C)cc1C is 220

Lab note: molecule CCn1c(C(=O)N(C2CC2)C2CC2)cc2c3c(ncn3C)c(Nc3cc(C)nn3C)nc21 tested on Non-receptor tyrosine-protein kinase TYK2 (Homo sapiens, UniProt P29597); recorded IC50 was 2300

---

molecular target: UniProtKB Q12809; test: Inhibition of human ERG at 30 uM by patch clamp assay
Sequence (Q12809 whole entry): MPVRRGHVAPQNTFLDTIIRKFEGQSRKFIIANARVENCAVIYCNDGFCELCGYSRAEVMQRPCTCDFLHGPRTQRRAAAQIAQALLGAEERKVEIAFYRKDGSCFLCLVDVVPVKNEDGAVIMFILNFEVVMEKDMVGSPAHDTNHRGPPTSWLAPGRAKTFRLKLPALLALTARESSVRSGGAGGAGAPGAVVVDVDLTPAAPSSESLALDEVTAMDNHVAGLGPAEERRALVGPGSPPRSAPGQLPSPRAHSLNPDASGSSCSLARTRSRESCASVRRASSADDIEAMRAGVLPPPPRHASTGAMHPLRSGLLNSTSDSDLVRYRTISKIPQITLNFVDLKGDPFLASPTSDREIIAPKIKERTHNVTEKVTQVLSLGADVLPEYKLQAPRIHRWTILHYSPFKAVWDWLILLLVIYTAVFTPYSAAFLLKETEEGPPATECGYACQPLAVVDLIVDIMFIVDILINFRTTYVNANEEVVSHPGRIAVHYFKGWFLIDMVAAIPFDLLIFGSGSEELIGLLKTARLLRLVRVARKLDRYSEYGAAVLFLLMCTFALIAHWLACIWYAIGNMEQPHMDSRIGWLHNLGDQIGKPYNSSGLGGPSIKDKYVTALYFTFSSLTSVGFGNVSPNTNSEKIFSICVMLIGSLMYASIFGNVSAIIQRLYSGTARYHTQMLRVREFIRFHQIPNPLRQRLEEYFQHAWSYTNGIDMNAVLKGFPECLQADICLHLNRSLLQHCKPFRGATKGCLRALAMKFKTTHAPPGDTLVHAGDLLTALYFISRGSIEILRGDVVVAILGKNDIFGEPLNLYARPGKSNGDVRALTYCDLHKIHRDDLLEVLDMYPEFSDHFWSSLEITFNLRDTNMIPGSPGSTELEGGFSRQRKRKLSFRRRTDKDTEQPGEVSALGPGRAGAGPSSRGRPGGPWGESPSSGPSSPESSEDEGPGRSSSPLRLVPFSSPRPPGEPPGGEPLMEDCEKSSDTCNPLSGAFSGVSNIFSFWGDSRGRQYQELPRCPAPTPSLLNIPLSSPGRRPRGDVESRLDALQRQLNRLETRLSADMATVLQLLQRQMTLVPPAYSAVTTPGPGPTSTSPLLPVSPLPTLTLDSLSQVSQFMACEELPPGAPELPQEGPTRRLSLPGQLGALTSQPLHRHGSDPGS
Value Type: inhibition at 30 µM (%)
Number only, in %; omit the unit.

The reported inhibition at 30 µM value, UniProtKB Q12809, for CCn1c(C(=O)N(C2CC2)C2CC2)cc2c3c(ncn3C)c(Nc3cc(C)n(C)n3)nc21 [BMS-911543] reads 20

---

test: Oral bioavailability in dog at 0.2 mg/kg; assay type: ADME, organism-based, Canis lupus familiaris; details: in vivo
Value Type: bioavailability
Field note: include the unit after the figure.

The compound listed as CCn1c(C(=O)N(C2CC2)C2CC2)cc2c3c(ncn3C)c(Nc3cc(C)n(C)n3)nc21 [BMS-911543] has a reported bioavailability of 82%

---

pIC50 values by entry
biological target: UniProt:P23458; assay: Inhibition of recombinant JAK1 (unknown origin) using 5-FAM-KKKKEEIYFFFG-OH substrate and ATP incubated for 180 mins by […] method
Note: pIC50 values are expressed as the negative base-10 logarithm of concentration in M.

# Test Smiles, Reported Value
rows = [
    ("CCn1nc(Nc2nc3c(cc(C(=O)N(C4CC4)C4CC4)n3CC)c3c2ncn3C)cc1C", 6.48),
]

Note to self: pIC50 recorded for CCn1c(C(=O)N(C2CC2)C2CC2)cc2c3c(ncn3C)c(Nc3nc(C(=O)NC)c(C)s3)nc21 was 7.66

For CCn1c(C(=O)N(C2CC2)C2CC2)cc2c3c(ncn3C)c(Nc3cc(C)nn3C)nc21 the molecule record lists pIC50 as 6.27

GET /value?item= CCn1c(C(=O)N(C2CC2)C2CC2)cc2c3c(ncn3C)c(Nc3nc(C)c(C(=O)NC)s3)nc21 &field=pIC50 returns 7.72

Lab note: measured pIC50 of CCn1c(C(=O)N(C2CC2)C2CC2)cc2c3c(ncn3C)c(Nc3nc(C)c(C(=O)N4CCS(=O)(=O)CC4)s3)nc21 was 7.32

---

assay: Oral bioavailability in rat at 1 mg/kg; type: ADME, organism-based; conditions: in vivo
Value Type: bioavailability (%)
The reply should be a number in %, with the unit left off.

Entry CCn1c(C(=O)N(C2CC2)C2CC2)cc2c3c(ncn3C)c(Nc3cc(C)n(C)n3)nc21 [BMS-911543] ; bioavailability = 100

---

target: Tyrosine-protein kinase JAK3 (Homo sapiens); assay: Inhibition of recombinant JAK3 (unknown origin) using 5-FAM-KKKKEEIYFFFG-OH substrate and ATP incubated for 180 mins by […] method
Sequence (P52333 whole entry): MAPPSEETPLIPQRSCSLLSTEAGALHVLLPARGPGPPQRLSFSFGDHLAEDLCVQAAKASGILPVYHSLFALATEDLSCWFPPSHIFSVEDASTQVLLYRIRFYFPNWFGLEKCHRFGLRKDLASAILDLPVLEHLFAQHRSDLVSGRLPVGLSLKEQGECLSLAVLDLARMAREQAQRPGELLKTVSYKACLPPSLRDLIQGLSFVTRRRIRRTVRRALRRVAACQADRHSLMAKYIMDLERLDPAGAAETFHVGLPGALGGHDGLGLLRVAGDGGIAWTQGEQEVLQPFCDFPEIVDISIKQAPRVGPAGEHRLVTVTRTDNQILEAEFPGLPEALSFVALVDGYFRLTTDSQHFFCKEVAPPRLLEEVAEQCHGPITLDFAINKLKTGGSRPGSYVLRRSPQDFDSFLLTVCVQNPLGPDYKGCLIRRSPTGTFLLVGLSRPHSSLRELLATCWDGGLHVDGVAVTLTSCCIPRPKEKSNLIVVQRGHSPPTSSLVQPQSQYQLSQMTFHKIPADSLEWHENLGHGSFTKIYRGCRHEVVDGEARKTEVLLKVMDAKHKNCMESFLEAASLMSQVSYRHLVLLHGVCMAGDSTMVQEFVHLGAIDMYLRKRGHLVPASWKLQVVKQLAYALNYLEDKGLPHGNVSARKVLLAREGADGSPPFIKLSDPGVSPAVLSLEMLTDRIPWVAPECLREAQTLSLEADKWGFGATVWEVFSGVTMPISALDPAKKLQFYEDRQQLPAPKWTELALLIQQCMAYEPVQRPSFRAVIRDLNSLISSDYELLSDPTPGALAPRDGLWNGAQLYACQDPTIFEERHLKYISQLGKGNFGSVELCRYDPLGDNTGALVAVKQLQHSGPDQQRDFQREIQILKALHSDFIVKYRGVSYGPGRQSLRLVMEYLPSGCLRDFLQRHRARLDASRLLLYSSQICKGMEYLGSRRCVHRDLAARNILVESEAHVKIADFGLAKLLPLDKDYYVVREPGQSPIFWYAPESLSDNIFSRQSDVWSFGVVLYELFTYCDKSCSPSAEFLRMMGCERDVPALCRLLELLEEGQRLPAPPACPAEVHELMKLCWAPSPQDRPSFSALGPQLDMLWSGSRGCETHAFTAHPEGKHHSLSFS
pIC50: −log10 of the molar value.
# pIC50 >= 7 gives 1 (yes), anything below gives 0 (no)

Consider the following illustrative entries.
# Test Smiles, Label Value
rows = [
    ("CCn1c(C(=O)N(C2CC2)C2CC2)cc2c3c(ncn3C)c(Nc3nc(C)c(S(C)(=O)=O)s3)nc21", "1 (yes)"),
    ("CCn1nc(Nc2nc3c(cc(C(=O)N(C4CC4)C4CC4)n3CC)c3c2ncn3C)cc1C", "0 (no)"),
    ("CCn1c(C(=O)N(C2CC2)C2CC2)cc2c3c(ncn3C)c(Nc3nc(C(=O)NC)c(C)s3)nc21", "1 (yes)"),
]

Determine whether this molecule has pIC50 no lower than 7: CCn1c(C(=O)N(C2CC2)C2CC2)cc2c3c(ncn3C)c(Nc3nc(C)n(C)n3)nc21
0 (no)

Kindly determine if pIC50 recorded for CCn1c(C(=O)N(C2CC2)C2CC2)cc2c3c(ncn3C)c(Nc3nc(C)c(C(=O)NC)s3)nc21 is above or exactly 7.
1 (yes)

---

experiment: Clearance in rat at 1 mg/kg, iv and 1 mg/kg, po; type: ADME, organism-based; conditions: in vivo
Value Type: clearance (mL/min/kg)
# number only, unit mL/min/kg dropped from output

Reported clearance ( CCn1c(C(=O)N(C2CC2)C2CC2)cc2c3c(ncn3C)c(Nc3cc(C)n(C)n3)nc21 [BMS-911543] ) = 0.7

---

target: Tyrosine-protein kinase JAK1 (Homo sapiens)
Sequence (P23458 whole entry): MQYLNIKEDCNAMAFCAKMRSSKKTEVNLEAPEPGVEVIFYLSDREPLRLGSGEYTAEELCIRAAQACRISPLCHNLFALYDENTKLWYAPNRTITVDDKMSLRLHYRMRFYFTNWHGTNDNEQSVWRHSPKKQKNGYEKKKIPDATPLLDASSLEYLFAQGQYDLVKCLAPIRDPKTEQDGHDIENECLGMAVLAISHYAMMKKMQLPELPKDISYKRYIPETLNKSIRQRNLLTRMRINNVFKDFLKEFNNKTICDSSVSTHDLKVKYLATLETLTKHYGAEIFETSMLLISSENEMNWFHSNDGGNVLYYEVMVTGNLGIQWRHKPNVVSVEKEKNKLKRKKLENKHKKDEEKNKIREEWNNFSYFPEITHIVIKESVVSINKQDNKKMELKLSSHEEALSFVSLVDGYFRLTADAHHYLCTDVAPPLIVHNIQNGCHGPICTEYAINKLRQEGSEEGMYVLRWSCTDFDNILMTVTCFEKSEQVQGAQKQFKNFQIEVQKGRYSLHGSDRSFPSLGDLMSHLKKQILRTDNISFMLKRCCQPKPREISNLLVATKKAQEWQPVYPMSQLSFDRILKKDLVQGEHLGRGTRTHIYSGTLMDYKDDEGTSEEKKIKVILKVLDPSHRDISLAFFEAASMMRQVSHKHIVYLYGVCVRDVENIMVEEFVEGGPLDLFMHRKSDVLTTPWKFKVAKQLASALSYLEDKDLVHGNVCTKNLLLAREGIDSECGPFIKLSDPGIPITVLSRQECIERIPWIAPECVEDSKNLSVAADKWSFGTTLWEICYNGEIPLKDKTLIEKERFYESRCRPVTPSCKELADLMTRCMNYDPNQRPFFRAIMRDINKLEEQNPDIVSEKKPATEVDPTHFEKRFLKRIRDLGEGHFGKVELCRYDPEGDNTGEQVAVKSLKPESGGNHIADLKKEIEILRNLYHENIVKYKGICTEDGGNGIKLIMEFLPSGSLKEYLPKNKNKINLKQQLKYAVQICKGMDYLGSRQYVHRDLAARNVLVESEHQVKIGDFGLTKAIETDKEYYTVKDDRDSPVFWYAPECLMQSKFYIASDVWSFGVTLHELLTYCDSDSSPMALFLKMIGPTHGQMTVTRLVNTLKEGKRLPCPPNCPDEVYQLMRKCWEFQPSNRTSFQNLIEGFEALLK
Value Type: pKd
// pKd here means minus log10 of the molar concentration (mol/L)

Assay Tyrosine-protein kinase JAK1 (Homo sapiens), sample CCn1c(C(=O)N(C2CC2)C2CC2)cc2c3c(ncn3C)c(Nc3cc(C)n(C)n3)nc21 [BMS-911543] , pKd read: 6.96

---

biological target: JAK3/JAK1 (Homo sapiens, UniProt P23458+P52333); experiment: Inhibition of JAK1/JAK3 in T cells (unknown origin) assessed as reduction in IL2-mediated cell proliferation
Sequence (P52333 whole entry): as the sequence (P52333 whole entry) above
Sequence (P23458 whole entry): as the sequence (P23458 whole entry) above
Value Type: pIC50
Reminder that pIC50 is minus the log10 of a molar concentration.

The reported value for CCn1c(C(=O)N(C2CC2)C2CC2)cc2c3c(ncn3C)c(Nc3cc(C)n(C)n3)nc21 [BMS-911543] in terms of pIC50 is 6.00

---

test: AUC (0 to 8 hrs) in mouse pharamcodynamic model at 5 mg/kg, po; assay type: ADME, organism-based; design: dose 5 mg/kg, time < 8 hr, route oral; conditions: in vivo
Value Type: AUC(0-t) at 8 h (µM·h)
API: value field is a number in µM·h; no unit string.

Per the records, this compound ( CCn1c(C(=O)N(C2CC2)C2CC2)cc2c3c(ncn3C)c(Nc3cc(C)n(C)n3)nc21 ) has AUC(0-t) at 8 h equal to 23

---

assay: Volume of distribution at steady state in rat at 1 mg/kg, iv and 1 mg/kg, po; format: ADME, organism-based; details: in vivo, read-out: Vdss
Value Type: Vd (L/kg)
Response body: numeric value in L/kg, unit text excluded.

# compound CCn1c(C(=O)N(C2CC2)C2CC2)cc2c3c(ncn3C)c(Nc3cc(C)n(C)n3)nc21 [BMS-911543] ; its Vd = 0.3

---

test: Antiproliferative activity against human SET2 cells incubated for 72 hrs by [3H] thymidine incorporation assay; assay type: functional, cell-based; conditions: SET-2
pIC50: −log10 of the molar value.
# if value of pIC50 reaches 7, tag Criterion met; if it stays below, tag Criterion not met

# Test Smiles, Label Value
records = [
    ("CCn1c(C(=O)N(C2CC2)C2CC2)cc2c3c(ncn3C)c(Nc3nc(C)c(S(C)(=O)=O)s3)nc21", "Criterion met"),
    ("CCn1c(C(=O)N(C2CC2)C2CC2)cc2c3c(ncn3C)c(Nc3cc(C)nn3C)nc21", "Criterion not met"),
    ("CCn1c(C(=O)N(C2CC2)C2CC2)cc2c3c(ncn3C)c(Nc3cc(C)n(C)n3)nc21", "Criterion met"),
]

hey, is pIC50 for this one >= 7? CCn1c(C(=O)N(C2CC2)C2CC2)cc2c3c(ncn3C)c(Nc3nc(C)n(C)n3)nc21
Criterion not met

hey, is pIC50 for this one >= 7? CCn1c(C(=O)N(C2CC2)C2CC2)cc2c3c(ncn3C)c(Nc3nc(C)c(C(=O)N4CCS(=O)(=O)CC4)s3)nc21
Criterion not met

Check this compound for pIC50 at or above 7: CCn1nc(Nc2nc3c(cc(C(=O)N(C4CC4)C4CC4)n3CC)c3c2ncn3C)cc1C
Criterion met

Hello, I need to know if CCn1c(C(=O)N(C2CC2)C2CC2)cc2c3c(ncn3C)c(Nc3cc(C)[nH]n3)nc21 has measured pIC50 not below 7. Thanks!
Criterion met
